Each recorded value in this set is attributed to PubChem BioAssay (EPA / NIEHS).

- test.system: rat Glutamate, AMPA Site (AMPA), Gria1 (gene 50592)
- assay.comment: NVS_LGIC_rAMPA: NovaScreen (NVS) Ligand-Gated Ion Channel Assay for rat Glutamate, AMPA Site (AMPA) (AID 2283324)
Inconclusive results are not listed. Activity calls are given as the source filed them. Rule for the calls: active = hit-call score of the fitted dose curve at least 0.9, where 1 is the maximum; inconclusive = response in the unintended direction; inactive = score below 0.9.
assay.metric: AC50

Answered cases to consult:
Lookup result for CN(C)c1ccc(C(=C2C=CC(=[N+](C)C)C=C2)c2ccc(N(C)C)cc2)cc1 ; measured AC50: inactive

Lookup result for O=c1[nH]sc2ccccc12 ; measured AC50: inactive

Lookup result for CN(C[C@@H](CC[N+]12CCC(C3CCCCC3)(CC1)CC2)c1ccc(Cl)c(Cl)c1)C(=O)c1cc(C(F)(F)F)cc(C(F)(F)F)c1 ; measured AC50: inactive

Lookup result for CN(C)C(=O)C1(N2CCCCC2)CCN(CC[C@@]2(c3ccc(Cl)c(Cl)c3)CN(C(=O)c3ccccc3)CCO2)CC1 ; measured AC50: 4.68 µM (active)

Continuing:
Lookup result for CCCCCCCCCC(=O)O ; measured AC50: inactive

---

- assay.comment: Tanguay_ZF_120hpf_CFIN_legacy: (Legacy) Oregon State University Tanguay Lab 120 Hour Post-fertilization zebrafish Assay for Caudal Fin Malformation (AID 2283649)
- Description: Tanguay_ZF_120hpf_legacy is a whole embryo, multiplexed endpoint assay using zebrafish larvae exposed for 120 hours post fertilization on a 96-well plate.Tanguay_ZF_120hpf_CFIN_legacy is one of one assay component(s) measured or calculated from the Tanguay_ZF_120hpf_legacy assay. […] This assay endpoint, Tanguay_ZF_120hpf_CFIN_legacy, was analyzed in the positive analysis fitting direction relative to DMSO as the negative control and baseline of activity. […]
Inconclusive results are not listed. Activity calls are given as the source filed them. The calls were made as follows: active = hit-call score of the fitted dose curve at least 0.9, where 1 is the maximum; inconclusive = response in the unintended direction; inactive = score below 0.9.
Please answer using one outcome listed in active, inactive

Entry NC(=O)c1nc(-c2cccc(-c3cc(F)ccc3OCC(F)(F)C(F)(F)F)c2)n[nH]1 : call = ?
inactive

Entry c1ccc2n[nH]nc2c1 : call = ?
inactive

Entry CCCCCCCCOc1ccc(C(=O)c2ccccc2)c(O)c1 : call = ?
inactive

Entry O=C(O)c1ccccc1-n1cc(C(=O)O)c(=O)c2cc(Nc3c(F)cc(F)cc3Cl)c(Cl)cc21 : call = ?
inactive

Entry C[C@]12CC[C@@H]3c4ccc(O)cc4CC[C@H]3[C@@H]1CC[C@H]2O : call = ?
inactive

Entry OC12N=C(c3ccccc3)SC1Cc1cc(Cl)ccc12 (stereo not given) : call = ?
active

Continuing:
Entry Cc1c2ccccc2c(C)c2c1ccc1ccccc12 : call = ?
active

Entry O=C(O)Cn1c(=O)n(Cc2ccc(Br)cc2F)c(=O)c2ccc(Cl)cc21 : call = ?
inactive

Entry CN(C[C@@H](CC[N+]12CCC(C3CCCCC3)(CC1)CC2)c1ccc(Cl)c(Cl)c1)C(=O)c1cc(C(F)(F)F)cc(C(F)(F)F)c1 : call = ?
inactive

Entry CCCCCCCCOC(=O)c1cc(O)c(O)c(O)c1 : call = ?
inactive

---

- assay.comment: Tanguay_ZF_120hpf_PE_legacy: (Legacy) Oregon State University Tanguay Lab 120 Hour Post-fertilization zebrafish Assay for Pericardial Edema (AID 2283640)
Inconclusive results are not listed. The source made the active and inactive calls. Rule for the calls: active = hit-call score of the fitted dose curve at least 0.9, where 1 is the maximum; inconclusive = response in the unintended direction; inactive = score below 0.9.
Please answer using one outcome listed in t = active, f = inactive

// known answers, use as guide
Entry CC(O)CC(C)(C)O (stereo not given) : call = ?
f

Entry CC/C(=C(/CC)c1ccc(O)cc1)c1ccc(O)cc1 : call = ?
f

Entry Oc1ccccc1 : call = ?
f

Entry c1ccc(C[n+]2cccc3ccccc32)cc1 : call = ?
f

Entry COc1cccc([C@H](O)C2CCN(CCc3ccc(F)cc3)CC2)c1OC : call = ?
t

Entry CCCCCCCCN(C)CCCCCCCC : call = ?
f

Entry Clc1cc(Cl)c2c(c1)N=C1CCCCCN1C2 : call = ?
t

Entry CCCCCCCCCCCCO : call = ?
f

Continuing:
Entry CCCCCCCCCCCO : call = ?
f

Entry COc1ccc2cc(S(=O)(=O)N[C@H](CC(=O)N[C@H](Cc3ccc(CN4[C@H](C)CCC[C@@H]4C)cc3)C(=O)N(C)C(C)C)c3ccc4c(c3)OCO4)ccc2c1 : call = ?
f

Entry CCCC(=O)OCCC(C)C : call = ?
f

Entry CC1=CC(=O)/C(=C(/C)O)C(=O)O1 : call = ?
f

Entry CCCOC(=O)c1cc(O)c(O)c(O)c1 : call = ?
f

Entry CN1C(=O)N(c2ccccc2Br)Cc2cnc(Nc3ccc4c(c3)OCC(CO)O4)nc21 (stereo not given) : call = ?
t

---

- Read-out: Lipoprotein lipase (LPL), LPL (gene 4023)
- assay.comment: LTEA_HepaRG_LPL: Life Technologies and Expression Analysis (LTEA) Assay for Lipoprotein lipase (LPL) using HepaRG (AID 2283515)
- condition.details: mRNA level, 48 h; actives raise or lower the signal
Calls of active or inactive are those of the source. The calls were made as follows: active = hit-call score of the fitted dose curve at least 0.9, where 1 is the maximum; inactive = score below 0.9.
Please answer using one outcome listed in Y for active, N for inactive

// known answers, use as guide
Entry OC12N=C(c3ccccc3)SC1Cc1cc(Cl)ccc12 (stereo unspecified) : call = ?
Y

Entry CCCCCCCCCCCCO : call = ?
N

Entry CC(C)(C)c1csc(-c2cc3cc(OCc4ccccc4CC(=O)O)ccc3o2)n1 : call = ?
Y

Continuing:
Entry CCCOC(=O)c1cc(O)c(O)c(O)c1 : call = ?
N

Entry O=c1ccc2ccccc2o1 : call = ?
N

Entry Cc1ccc2oc(CN(Cc3ccccc3)C(=O)Nc3c(F)cc(F)cc3F)c(-c3ccc(Cl)cc3)c2c1 : call = ?
Y

---

- Read-out: Urokinase-type plasminogen activator receptor (uPAR), PLAUR (gene 5329)
- assay.comment: BSK_BE3C_uPAR: BioMAP Diversity Plus: BE3C Assay for Urokinase-type plasminogen activator receptor (uPAR) Biomarker Activity (AID 2283039);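 for outcome: uPAR protein level measured by ELISA on the cells; cells exposed to compound for one day before measurement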
- condition.details: primary human bronchial epithelial cells; actives raise or lower the signal
Activity calls are given as the source filed them. The calls were made as follows: active = hit-call score of the fitted dose curve at least 0.9, where 1 is the maximum; inactive = score below 0.9.
Please answer using one outcome listed in yes for active, no for inactive

Entry COc1cc(C(=O)NC2CCN(C)CC2)ccc1Nc1ncc2c(n1)N(C1CCCC1)CC(F)(F)C(=O)N2C : call = ?
yes

Entry OCCO : call = ?
no

Entry CCCCOC(=O)CC(CC(=O)OCCCC)(OC(C)=O)C(=O)OCCCC : call = ?
no

Then this molecule:
Entry CC/C(=C(/CC)c1ccc(O)cc1)c1ccc(O)cc1 : call = ?
yes

---

- test.system: human Serotonin, 5-Hydroxytryptamine Receptor 7 (5HT7), HTR7 (gene 3363) (UniProt P34969)
- Sequence (P34969 whole entry, looked up): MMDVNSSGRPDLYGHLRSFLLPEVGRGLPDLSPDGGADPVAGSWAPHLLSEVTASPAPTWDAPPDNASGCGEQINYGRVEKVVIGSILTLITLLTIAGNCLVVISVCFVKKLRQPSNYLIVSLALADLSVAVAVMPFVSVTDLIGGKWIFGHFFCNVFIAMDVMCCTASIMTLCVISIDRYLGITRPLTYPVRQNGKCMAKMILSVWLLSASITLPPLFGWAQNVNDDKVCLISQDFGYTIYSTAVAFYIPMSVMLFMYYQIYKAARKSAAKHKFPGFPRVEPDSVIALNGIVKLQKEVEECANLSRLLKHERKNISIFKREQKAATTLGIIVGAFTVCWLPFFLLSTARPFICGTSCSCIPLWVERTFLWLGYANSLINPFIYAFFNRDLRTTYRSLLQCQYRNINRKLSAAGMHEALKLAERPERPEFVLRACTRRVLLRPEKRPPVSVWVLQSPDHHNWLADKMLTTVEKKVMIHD
- assay.comment: NVS_GPCR_h5HT7: NovaScreen (NVS) G Protein-Coupled Receptor Assay for human Serotonin, 5-Hydroxytryptamine Receptor 7 (5HT7) (AID 2283255);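 note: hits reduce specific radioligand binding relative to DMSO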
Records with an inconclusive call do not appear. The source made the active and inactive calls. Rule for the calls: active = hit-call score of the fitted dose curve at least 0.9, where 1 is the maximum; inconclusive = response in the unintended direction; inactive = score below 0.9.
Please answer using one outcome listed in class 1 (active), class 0 (inactive)

Entry CN(C)C(=O)C1(N2CCCCC2)CCN(CC[C@@]2(c3ccc(Cl)c(Cl)c3)CN(C(=O)c3ccccc3)CCO2)CC1 : call = ?
class 1

Entry COc1cccc([C@H](O)C2CCN(CCc3ccc(F)cc3)CC2)c1OC : call = ?
class 1

Entry O=C1c2ccccc2C(=O)N1CCc1noc(-c2ccc(CN3CCCCCC3)s2)n1 : call = ?
class 1

Entry CCCCCCCCCC(=O)O : call = ?
class 0

Entry Cc1occc1C(=O)Nc1ccc(C(=O)N2CCC(F)(F)/C(=C\C(=O)N3CCC(N4CCCCC4)CC3)c3ccccc32)cc1 : call = ?
class 1

Entry CCN(Cc1cccc(S(=O)(=O)O)c1)c1ccc(C(=C2C=CC(=[N+](CC)Cc3cccc(S(=O)(=O)O)c3)C=C2)c2ccccc2S(=O)(=O)[O-])cc1 : call = ?
class 1

Entry CCCCCCCCCCCC[N+](C)(C)C : call = ?
class 1

Entry O=c1[nH]sc2ccccc12 : call = ?
class 1

Entry CCOC(=O)O[C@H](C)OC(=O)c1ccc2c(c1)cc(C(=O)NC1CCN(C(C)C)CC1)n2Cc1cc(-c2ccc(Cl)s2)on1 : call = ?
class 1

Entry CCCCCCCCOC(=O)c1cc(O)c(O)c(O)c1 : call = ?
class 1

Then this compound:
Entry CCN(CC)C(=O)c1cc(S(=O)(=O)Cc2ccccc2)c(N2CCC(c3ccccc3)CC2)cc1N(CC)CCN(C)C : call = ?
class 1

---

- Read-out: CYP4A11 (gene 1579)
- assay.comment: LTEA_HepaRG_CYP4A11: Life Technologies and Expression Analysis (LTEA) Assay for CYP4A11 using HepaRG (AID 2283486)
- condition.details: mRNA level, 48 h; actives raise or lower the signal
Active and inactive are the calls of the source. The calls were made as follows: active = hit-call score of the fitted dose curve at least 0.9, where 1 is the maximum; inactive = score below 0.9.
Please answer using one outcome listed in active, inactive

// known answers, use as guide
Entry O=C(Nc1ccc(Cl)cc1)Nc1ccc(Cl)c(Cl)c1 : call = ?
active

Entry CN(C[C@@H](CC[N+]12CCC(C3CCCCC3)(CC1)CC2)c1ccc(Cl)c(Cl)c1)C(=O)c1cc(C(F)(F)F)cc(C(F)(F)F)c1 : call = ?
active

Entry O=CCCCC=O : call = ?
inactive

Entry Oc1ccccc1 : call = ?
inactive

Entry Cc1cn([C@H]2C[C@H](N=[N+]=[N-])[C@@H](CO)O2)c(=O)[nH]c1=O : call = ?
inactive

Then this compound:
Entry O=C(O)c1ccccc1-n1cc(C(=O)O)c(=O)c2cc(Nc3c(F)cc(F)cc3Cl)c(Cl)cc21 : call = ?
inactive
